target: T1, purified human CD117 ectodomain (R&D Systems #332-SR) (human, UniProt P10721 26-524); experiment: BLI; kdis compared to HC-1/LC-1 (Ab1)
T1 construct: extracellular domain; Bought protein; also called c-kit; purified recombinant human CD117 ectodomain
T1 sequence (P10721 26-524): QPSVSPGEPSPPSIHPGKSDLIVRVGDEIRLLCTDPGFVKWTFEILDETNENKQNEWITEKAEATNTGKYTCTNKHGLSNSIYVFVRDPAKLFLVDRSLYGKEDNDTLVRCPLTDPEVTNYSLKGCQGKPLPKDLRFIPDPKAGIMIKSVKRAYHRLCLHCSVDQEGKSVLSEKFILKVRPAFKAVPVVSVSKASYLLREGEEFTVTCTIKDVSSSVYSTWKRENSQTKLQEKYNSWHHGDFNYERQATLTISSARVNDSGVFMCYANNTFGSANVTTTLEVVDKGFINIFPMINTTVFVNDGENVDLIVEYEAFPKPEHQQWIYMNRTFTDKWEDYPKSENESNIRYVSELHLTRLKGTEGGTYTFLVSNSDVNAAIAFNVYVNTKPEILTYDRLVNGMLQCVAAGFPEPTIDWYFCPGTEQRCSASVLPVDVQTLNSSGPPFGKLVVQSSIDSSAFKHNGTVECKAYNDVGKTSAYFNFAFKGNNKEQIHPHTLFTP
Give Fold improvement (off-rate) for every item shown.
Give bare numbers, in fold.

| binder | Fold improvement (off-rate) / fold |
| --- | --- |
| HC-85/LC-85 (Ab85) (antibody, V domains shown, Purified IgG, hIgG1/hKappa; also called Antibody 85) VH: EVQLVQSGAEVKKPGESLKISCKGSGYSFTNYWIGWVRQMPGKGLEWMAIINPRDSDTRYRPSFQGQVTISADKSISTAYLQWSSLKASDTAMYYCARHGRGYEGYEGAFDIWGQGTLVTVSS VL: DIQMTQSPSSLSASVGDRVTITCRSSQGIRSDLGWYQQKPGKAPKLLIYDASNLETGVPSRFSGSGSGTDFTLTISSLQPEDFATYYCQQANGFPLTFGGGTKVEIK | 5.2 |

Look at this binder and give its reported Fold improvement (off-rate). HC-81/LC-81 (Ab81) (antibody, IgG1, V domains shown, Purified human antibody tested as an IgG1; hIgG1/hKappa; also called Antibody 81) VH: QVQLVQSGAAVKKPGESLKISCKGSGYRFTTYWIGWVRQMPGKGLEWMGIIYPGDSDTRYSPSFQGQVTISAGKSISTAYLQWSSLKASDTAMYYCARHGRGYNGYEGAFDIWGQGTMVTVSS VL: DIQLTQSPSSLSASVGDRVTITCRASQGVISALAWYQQKPGKAPKLLIYDASTLESGVPSRFSGSGSGTDFTLTISSLQPEDFATYYCQQFNSYPLTFGGGTKVEIK 9
